Tested on: SARS-CoV-2, isolate USA-WA1/2020
assay_procedure: microbe, parasite or virus in culture
Format: cell-based
setup_conditions: HeLa-ACE2 SARS-CoV-2 antiviral effect without P-gp inhibitor; minimum measured response of dose series
# reported perc_min_measured; entries follow
Value expressed in %; do not type the unit.

Solved cases (10 shown):
[
  {
    "compound": "CC(C)[C@H](Nc1ncnc2[nH]c(-c3cnn(C)c3)cc12)c1ccc2c(c1)S(=O)(=O)CCC2 (single isomer, unassigned)",
    "measure_unit": "%",
    "perc_min_measured": 52.798
  },
  {
    "compound": "CC(C)[C@@H](Nc1ncnc2[nH]ccc12)c1ccc2c(c1)S(=O)(=O)CCO2",
    "measure_unit": "%",
    "perc_min_measured": 83.757
  },
  {
    "compound": "CNCc1cc(-c2cc3c(N[C@@H](c4ccc5c(c4)S(=O)(=O)NCC5)C(C)C)ncnc3[nH]2)co1",
    "measure_unit": "%",
    "perc_min_measured": 81.688
  },
  {
    "compound": "CC(C)[C@@H](Nc1ncnc2[nH]c(-c3ccc4cncn4c3)cc12)c1ccc2c(c1)S(=O)(=O)CCC2",
    "measure_unit": "%",
    "perc_min_measured": 28.375
  },
  {
    "compound": "CC(C)[C@@H](Nc1ncnc2[nH]c(-c3cncc(S(C)(=O)=O)c3)cc12)c1ccc2c(c1)S(=O)(=O)CCC2",
    "measure_unit": "%",
    "perc_min_measured": 96.629
  },
  {
    "compound": "CC(C)[C@@H](Nc1ncnc2[nH]cc(C(=O)NC3CC3)c12)c1ccc2c(c1)S(=O)(=O)CCC2",
    "measure_unit": "%",
    "perc_min_measured": 37.723
  },
  {
    "compound": "Cc1nn(C)cc1-c1cc2c(NC(c3ccc4c(c3)S(=O)(=O)CCC4)C(C)C)ncnc2[nH]1 (stereo not shown)",
    "measure_unit": "%",
    "perc_min_measured": 82.491
  },
  {
    "compound": "CC(C)[C@@H](Nc1ncnc2[nH]c(-c3ccc4nnn(C)c4c3)cc12)c1ccc2c(c1)S(=O)(=O)CCC2",
    "measure_unit": "%",
    "perc_min_measured": 33.895
  },
  {
    "compound": "CC(C)C(Nc1ncnc2[nH]ccc12)c1ccc2c(c1)NC(=O)CO2 (stereo not shown)",
    "measure_unit": "%",
    "perc_min_measured": 69.199
  },
  {
    "compound": "CC(C)[C@@H](Nc1ncnc2[nH]c(-c3cnn(C)c3)cc12)c1ccc2c(c1)S(=O)(=O)NCC2",
    "measure_unit": "%",
    "perc_min_measured": 69.993
  }
]

Data request: Look up and state reported perc_min_measured for CNC(=O)Cn1cc(-c2cc3c(N[C@H](c4ccc5c(c4)S(=O)(=O)CCC5)C(C)C)ncnc3[nH]2)cn1 (single isomer, unassigned)
Data returned: 92.194

Data request: Give me measured perc_min_measured, please, for this compound: CC(C)[C@H](Nc1ncnc2[nH]ccc12)c1ccc2c(c1)S(=O)(=O)CCC2
Data returned: 103.942

Data request: Give me measured perc_min_measured, please, for this compound: CCNC(=O)c1cc2c(N[C@H](c3ccc4c(c3)OCCO4)C(C)C)ncnc2[nH]1 (single isomer, unassigned) [ASAP-0013827]
Data returned: 80.543

Data request: Using known records, supply perc_min_measured for CC(C)[C@@H](Nc1ncnc2[nH]c(-c3cnn(C)c3C#N)cc12)c1ccc2c(n1)NC(=O)CO2 (single isomer, unassigned)
Data returned: 8.802

Data request: Please supply the value of reported perc_min_measured for the item CC(C)(C)[C@@H](Nc1ncnc2[nH]c(-c3cnn(CC(N)=O)c3)cc12)c1ccc2c(n1)OCCO2
Data returned: 93.464
